# IC50 listing for each entry below
target: Recombinant human TRKA (Homo sapiens (Human), UniProt P04629); assay: In vitro activity test on TRKA kinase (HTRF kinEASE TK); assay type: biochemical; conditions: 14.68 μM ATP, 40 min, room temperature
Sequence (P04629 33-796): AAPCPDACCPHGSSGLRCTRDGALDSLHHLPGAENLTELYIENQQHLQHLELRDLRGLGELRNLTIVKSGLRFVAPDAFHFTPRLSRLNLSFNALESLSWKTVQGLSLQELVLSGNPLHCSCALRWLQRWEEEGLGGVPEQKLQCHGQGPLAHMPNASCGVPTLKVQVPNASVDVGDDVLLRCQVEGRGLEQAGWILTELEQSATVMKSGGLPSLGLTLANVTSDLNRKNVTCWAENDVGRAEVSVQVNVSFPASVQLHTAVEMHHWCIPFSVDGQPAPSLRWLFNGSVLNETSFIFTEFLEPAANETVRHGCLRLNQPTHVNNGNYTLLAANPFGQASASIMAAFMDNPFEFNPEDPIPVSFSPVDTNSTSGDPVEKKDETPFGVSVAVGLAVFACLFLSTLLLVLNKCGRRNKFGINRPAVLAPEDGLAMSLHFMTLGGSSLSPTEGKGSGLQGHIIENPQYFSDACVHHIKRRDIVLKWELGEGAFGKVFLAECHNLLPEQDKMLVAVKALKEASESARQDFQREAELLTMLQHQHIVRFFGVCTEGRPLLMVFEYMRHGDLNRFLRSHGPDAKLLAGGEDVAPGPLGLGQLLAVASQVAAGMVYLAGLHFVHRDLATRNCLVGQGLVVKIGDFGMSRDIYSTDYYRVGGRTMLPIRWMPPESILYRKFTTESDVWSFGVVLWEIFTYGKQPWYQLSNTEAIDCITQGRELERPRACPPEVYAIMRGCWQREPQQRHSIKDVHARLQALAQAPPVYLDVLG

Consider the following illustrative entries.
# molecule, quantity_name, measured_value
records = [
    ("O=C(NCCCO)c1cnc2[nH]nc(N3CCC[C@@H]3c3cc(F)ccc3F)c2c1 [Example 9]", "IC50", "< 50 nM"),
    ("CC(C)OC(=O)c1cnc2[nH]nc(N3C[C@@H](F)C[C@@H]3c3cc(F)ccc3F)c2c1 [Example 19]", "IC50", "< 1 nM"),
    ("CN(C)C(=O)c1cnc2[nH]nc(N3C[C@@H](F)C[C@@H]3c3cc(F)ccc3F)c2c1 [Example 18]", "IC50", "< 500 nM"),
    ("Fc1ccc(F)c([C@H]2C[C@H](F)CN2c2n[nH]c3ncc(-c4cnn([C@H]5CCNC5)c4)cc23)c1 [Example 25]", "IC50", "< 1 nM"),
    ("CS(=O)(=O)n1cc(-c2cnc3[nH]nc(N4C[C@@H](F)C[C@@H]4c4cc(F)ccc4F)c3c2)cn1 [Example 27]", "IC50", "< 1 nM"),
]

Task: Quick one: IC50 of O=C(Nc1cnc2[nH]nc(N3CCC[C@@H]3c3cc(F)ccc3F)c2c1)N1CC[C@H](O)C1 [Example 2] ?
Output: < 500 nM

Task: Quick one: IC50 of Fc1ccc(F)c([C@H]2C[C@H](F)CN2c2n[nH]c3ncc(-c4nn[nH]n4)cc23)c1 [Example 21] ?
Output: < 1 nM

====

Target: recombinant human TRKA (G595R) (Homo sapiens (Human), UniProt P04629, G595R)
Sequence (P04629 33-796 G595R): as the sequence (P04629 33-796) above, with G563R counted along it
Test: In vitro activity test on mutant TRKA (G595R) (HTRF kinEASE TK)
Conditions: 4.5 μM ATP, 30 min, room temperature; read-out: TRKA (G595R) IC 50
Procedure: The recombinant human TRKA (G595R), TRKA (G667C) and TRKC (G623R) proteins were purchased from SignalChem. HTRF kinEASE TK kit was purchased from Cisbio Bioassays. Synergy Neo 2 of Biotek was used to read the plate. […] 10 μL of detection reagent (containing 0.125 μM SA-XL665 and 5 μL 1×TK-Antibody) was added to the plate and incubated overnight at room temperature, and Synergy Neo 2 was used to read the plate. […]
# IC50 listing for each entry below

# compound, IC50
rows = [
    ("Fc1ccc(F)c([C@H]2C[C@H](F)CN2c2n[nH]c3ncc(-c4nnc(COC(F)(F)F)o4)cc23)c1 [Example 41]", "< 1 nM"),
    ("CS(=O)(=O)n1cc(-c2cnc3[nH]nc(N4C[C@@H](F)C[C@@H]4c4cc(F)ccc4F)c3c2)cn1 [Example 27]", "< 1 nM"),
]

Task: Quick one: IC50 of Fc1ccc(F)c([C@H]2C[C@H](F)CN2c2n[nH]c3ncc(-c4cnn(C5CCNCC5)c4)cc23)c1 [Example 22] ?
Output: < 1 nM

Task: Quick one: IC50 of CN(C)CCn1cc(-c2cnc3[nH]nc(N4C[C@@H](F)C[C@@H]4c4cc(F)ccc4F)c3c2)cn1 [Example 33] ?
Output: < 1 nM

Task: Quick one: IC50 of Cc1cn(CC(F)F)nc1-c1cnc2[nH]nc(N3C[C@@H](F)C[C@@H]3c3cc(F)ccc3F)c2c1 [Example 40] ?
Output: < 10 nM

Task: Quick one: IC50 of O=C(O)c1cnc2[nH]nc(N3C[C@@H](F)C[C@@H]3c3cc(F)ccc3F)c2c1 [Example 17] ?
Output: < 10 nM

Task: Quick one: IC50 of Fc1ccc(F)c([C@H]2C[C@H](F)CN2c2n[nH]c3ncc(-c4nn[nH]n4)cc23)c1 [Example 21] ?
Output: < 1 nM

====

target: Recombinant human TRKC (Homo sapiens (Human), UniProt Q16288); test: In vitro activity test on TRKC kinase (HTRF kinEASE TK); format: biochemical; conditions: 25.64 μM ATP, 40 min, room temperature
Sequence (Q16288 32-839): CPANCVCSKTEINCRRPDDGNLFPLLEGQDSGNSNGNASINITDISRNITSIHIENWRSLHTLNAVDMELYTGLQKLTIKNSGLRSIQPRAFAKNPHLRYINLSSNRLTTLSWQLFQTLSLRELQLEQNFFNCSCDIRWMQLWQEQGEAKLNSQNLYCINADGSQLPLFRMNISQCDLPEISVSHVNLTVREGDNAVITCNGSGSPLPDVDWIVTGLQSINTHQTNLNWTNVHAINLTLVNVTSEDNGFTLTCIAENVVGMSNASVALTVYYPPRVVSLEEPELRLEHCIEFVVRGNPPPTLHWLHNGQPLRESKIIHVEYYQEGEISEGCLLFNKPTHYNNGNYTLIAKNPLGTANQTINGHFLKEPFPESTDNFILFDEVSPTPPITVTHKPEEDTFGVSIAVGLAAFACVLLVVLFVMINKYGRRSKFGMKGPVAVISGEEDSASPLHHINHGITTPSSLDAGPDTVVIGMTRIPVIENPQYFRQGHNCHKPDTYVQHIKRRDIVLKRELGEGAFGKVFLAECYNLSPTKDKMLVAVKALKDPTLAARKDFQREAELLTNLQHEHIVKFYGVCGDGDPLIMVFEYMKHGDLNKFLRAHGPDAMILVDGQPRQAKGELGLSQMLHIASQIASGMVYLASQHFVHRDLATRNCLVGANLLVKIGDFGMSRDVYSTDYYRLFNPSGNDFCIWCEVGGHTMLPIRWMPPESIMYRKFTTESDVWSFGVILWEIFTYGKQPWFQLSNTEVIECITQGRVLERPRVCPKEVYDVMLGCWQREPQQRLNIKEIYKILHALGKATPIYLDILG
quantity_name: IC50

Consider the following illustrative entries.
# mol, quantity_name, measured_value
data = [
    ("CN1CC(n2cc(-c3cnc4[nH]nc(N5C[C@@H](F)C[C@@H]5c5cc(F)ccc5F)c4c3)cn2)C1", "IC50", "< 1 nM"),
    ("Fc1ccc(F)c([C@H]2C[C@H](F)CN2c2n[nH]c3ncc(-c4nn[nH]n4)cc23)c1", "IC50", "< 1 nM"),
    ("Fc1ccc(F)c([C@H]2C[C@H](F)CN2c2n[nH]c3ncc(-c4cnn(C5CCOCC5)c4)cc23)c1", "IC50", "< 1 nM"),
]

Task: API: value(readout=IC50, system=Recombinant human TRKC (Homo sapiens (Human), UniProt Q16288)) for record `NC(=O)c1cnc2[nH]nc(N3C[C@@H](F)C[C@@H]3c3cc(F)ccc3F)c2c1`
Output: < 10 nM

Task: API: value(readout=IC50, system=Recombinant human TRKC (Homo sapiens (Human), UniProt Q16288)) for record `Fc1ccc(F)c([C@H]2C[C@H](F)CN2c2n[nH]c3ncc(-c4cnn(CC(F)(F)F)c4)cc23)c1`
Output: < 1 nM

Task: API: value(readout=IC50, system=Recombinant human TRKC (Homo sapiens (Human), UniProt Q16288)) for record `CN(C)C(=O)c1cnc2[nH]nc(N3C[C@@H](F)C[C@@H]3c3cc(F)ccc3F)c2c1`
Output: < 500 nM

Task: API: value(readout=IC50, system=Recombinant human TRKC (Homo sapiens (Human), UniProt Q16288)) for record `O=C(NCCO)c1cnc2[nH]nc(N3CCC[C@@H]3c3cc(F)ccc3F)c2c1`
Output: < 50 nM

Task: API: value(readout=IC50, system=Recombinant human TRKC (Homo sapiens (Human), UniProt Q16288)) for record `COCc1nnc(-c2cnc3[nH]nc(N4C[C@@H](F)C[C@@H]4c4cc(F)ccc4F)c3c2)o1`
Output: < 1 nM

Task: API: value(readout=IC50, system=Recombinant human TRKC (Homo sapiens (Human), UniProt Q16288)) for record `Fc1ccc(F)c([C@H]2C[C@H](F)CN2c2n[nH]c3ncc(-c4cnn(COCc5ccccc5)c4)cc23)c1`
Output: < 10 nM
